Details: in acetonitrile, 303.2 K
readout_name: solubility (mole fraction)

Supply solubility (mole fraction) value. Item: "Cc1cc(C)c(C(=O)P(=O)(C(=O)c2c(C)cc(C)cc2C)c2ccccc2)c(C)c1"
0.00793

Hey, just so you know, these numbers are from BigSolDB 2.1.
